All figures here come from patent US12371454B2.

Would you kindly list pIC50 for each of these molecules?
- system: Kras and SOS1 (biotin-tagged human Kras loaded with GDP, His-tagged human SOS1) (Homo sapiens, UniProt P01116, G12D)
- Construct: made in house; host or cells: E. coli (stated for Kras only)
- Sequence (P01116 1-188 isoform P01116-2 G12D): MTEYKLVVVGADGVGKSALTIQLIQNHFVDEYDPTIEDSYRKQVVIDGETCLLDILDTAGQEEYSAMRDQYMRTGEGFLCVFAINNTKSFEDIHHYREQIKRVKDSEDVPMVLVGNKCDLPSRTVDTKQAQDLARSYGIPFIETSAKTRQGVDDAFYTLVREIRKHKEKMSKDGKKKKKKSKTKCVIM
- assay-name: Protein-protein interaction inhibition between Kras and SOS1 (KrasGl2D-SOS PPI) using AlphaScreen
- Assay type: binding
- measurement-parameters: AlphaScreen; biotin-tagged human Kras loaded with GDP, His-tagged human SOS1; read-out: KRAS G12D-SOS PPI IC50
Positions of bridges follow the written chain, without caps; N, C: chain ends. Non-standard residues stand in square brackets, D forms with d. Residues, ends and D or L forms follow the SMILES beside them. *: point of attachment. hPhe(3-Cl-4-CF3) = N[C@@H](CCc1ccc(C(F)(F)F)c(Cl)c1)C(=O)O; NMeAbu(4,4,4-F3) = CN[C@@H](CC(F)(F)F)C(=O)O; NMePhe(4-Me) = CN[C@@H](Cc1ccc(C)cc1)C(=O)O; Phe(3-I) = N[C@@H](Cc1cccc(I)c1)C(=O)O; NMeCha = CN[C@@H](CC1CCCCC1)C(=O)O; NMeChg = CN[C@H](C(=O)O)C1CCCCC1; NMeF = CN[C@@H](Cc1ccccc1)C(=O)O; NMeI = CC[C@H](C)[C@H](NC)C(=O)O; NMeD = CN[C@@H](CC(=O)O)C(=O)O; NMeL = CN[C@@H](CC(C)C)C(=O)O; d(β3hA) = C[C@@H](N)CC(=O)O; NMeA = CN[C@@H](C)C(=O)O; NMeAib = CNC(C)(C)C(=O)O; Piperidide = C1CCN(*)CC1; Pra = C#CC[C@H](N)C(=O)O; Pyrrolidide = C1CCN(*)C1; Ac5c = NC1(C(=O)O)CCCC1; Aze = O=C(O)[C@@H]1CCN1; Sar = CNCC(=O)O
One number for each entry, as −log10 of the molar value.

# count of solved cases: 2
# molecule, pIC50
data = [
    ("CC[C@H](C)[C@@H]1NC(=O)[C@H](CC(C)C)N(C)C(=O)C[C@@H](C)NC(=O)[C@H]([C@@H](C)CC)N(C)C(=O)C2(CCCC2)NC(=O)[C@@H]2CCCN2C(=O)[C@H](CCc2ccc(C(F)(F)F)c(Cl)c2)NC(=O)CN(C)C(=O)[C@H](CC2CCCCC2)N(C)C(=O)CN(C)C(=O)CN(C)C1=O [Compound 708] (cyclo([Ac5c][NMeI][d(β3hA)][NMeL]I[Sar][Sar][NMeCha][Sar][hPhe(3-Cl-4-CF3)]P))", 7.96),
    ("CC[C@H](C)[C@@H]1NC(=O)[C@H](CC(C)C)N(C)C(=O)C[C@@H](C(=O)N(C)C)N(C)C(=O)[C@H]([C@@H](C)CC)N(C)C(=O)C2(CCCC2)NC(=O)[C@H](C)N(C)C(=O)[C@H](CCc2ccc(C(F)(F)F)c(Cl)c2)NC(=O)CN(C)C(=O)[C@H](Cc2ccc(C)cc2)N(C)C(=O)[C@@H]2CCN2C(=O)[C@H](C)N(C)C1=O [Compound 378] ([NMeL]I[NMeA][Aze][NMePhe(4-Me)][Sar][hPhe(3-Cl-4-CF3)][NMeA][Ac5c][NMeI][NMeD]-NMe2; lactam N-11)", 9.17),
]

Look at each molecule and report its pIC50.
1. CC[C@H](C)[C@@H]1NC(=O)[C@H](CC(F)(F)F)N(C)C(=O)C[C@@H](C(=O)N2CCCC2)N(C)C(=O)[C@H](C2CCCCC2)N(C)C(=O)C2(CCCC2)NC(=O)[C@@H]2CCCN2C(=O)[C@H](CCc2ccc(C(F)(F)F)c(Cl)c2)NC(=O)CN(C)C(=O)[C@H](CC2CCCCC2)N(C)C(=O)CN(C)C(=O)CN(C)C1=O [Compound 647] ([NMeAbu(4,4,4-F3)]I[Sar][Sar][NMeCha][Sar][hPhe(3-Cl-4-CF3)]P[Ac5c][NMeChg][NMeD]-Pyrrolidide; lactam N-11)
2. C#CC[C@@H]1NC(=O)[C@H](Cc2cccc(I)c2)NC(=O)CN(C)C(=O)[C@H](Cc2ccccc2)N(C)C(=O)CN(C)C(=O)CN(C)C(=O)[C@H]([C@@H](C)CC)NC(=O)[C@H](CC(C)C)N(C)C(=O)C[C@@H](C(=O)N2CCCCC2)N(C)C(=O)[C@H](CC(C)C)NC(=O)C(C)(C)N(C)C1=O [Compound 1184] ([NMeL]I[Sar][Sar][NMeF][Sar][Phe(3-I)][Pra][NMeAib]L[NMeD]-Piperidide; lactam N-11)
3. CC[C@H](C)[C@@H]1NC(=O)[C@H](CC(C)C)N(C)C(=O)C[C@@H](C(=O)N2CCCCC2)N(C)C(=O)[C@H](C2CCCCC2)N(C)C(=O)C2(CCCC2)NC(=O)[C@@H]2CCCN2C(=O)[C@H](CCc2ccc(C(F)(F)F)c(Cl)c2)NC(=O)CN(C)C(=O)[C@H](CC2CCCCC2)N(C)C(=O)[C@H](C)N(C)C(=O)CN(C)C1=O [Compound 1186] ([NMeL]I[Sar][NMeA][NMeCha][Sar][hPhe(3-Cl-4-CF3)]P[Ac5c][NMeChg][NMeD]-Piperidide; lactam N-11)

**A:**
[9.24, 6.89, 8.07]
